The measurements presented in this section are drawn from ChEMBL document CHEMBL4610006.

measurement-kind: deltaG (kcal/mol)
Give just the number in kcal/mol; leave the unit off.

Name the value of deltaG reported for "CN1c2ccc(NC(=O)Nc3ccc(N)cc3)cc2C(C)(C)C(=O)C1(C)C" when tested on Stress-70 protein, mitochondrial (Homo sapiens, UniProt P38646).
Sequence (P38646 whole entry): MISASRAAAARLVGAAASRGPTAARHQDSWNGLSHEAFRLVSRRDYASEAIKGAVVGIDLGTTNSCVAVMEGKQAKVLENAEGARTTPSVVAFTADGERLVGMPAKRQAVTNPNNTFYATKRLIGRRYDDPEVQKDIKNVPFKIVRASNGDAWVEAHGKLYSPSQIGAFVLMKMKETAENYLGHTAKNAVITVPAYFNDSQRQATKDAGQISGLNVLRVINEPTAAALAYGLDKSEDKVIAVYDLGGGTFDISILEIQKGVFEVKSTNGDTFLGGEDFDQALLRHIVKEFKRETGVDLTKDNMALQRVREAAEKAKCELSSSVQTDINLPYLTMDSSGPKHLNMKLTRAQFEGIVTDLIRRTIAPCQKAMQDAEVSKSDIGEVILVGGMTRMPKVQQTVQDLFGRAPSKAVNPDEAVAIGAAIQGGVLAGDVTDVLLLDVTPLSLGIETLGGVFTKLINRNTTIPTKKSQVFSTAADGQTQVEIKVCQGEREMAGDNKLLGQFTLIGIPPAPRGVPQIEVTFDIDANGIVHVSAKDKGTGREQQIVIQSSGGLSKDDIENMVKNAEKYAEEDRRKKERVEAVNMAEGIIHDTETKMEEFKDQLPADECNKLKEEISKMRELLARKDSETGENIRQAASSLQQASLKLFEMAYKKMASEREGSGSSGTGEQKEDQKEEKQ
-8.2

Give reported deltaG for CN1c2ccc(NC(=S)Nc3ccc(C(F)(F)F)cc3)cc2C(C)(C)C(O)C1(C)C (stereo not drawn) (Stress-70 protein, mitochondrial (Homo sapiens, UniProt P38646))
-7.7

Identify measured deltaG obtained with Stress-70 protein, mitochondrial (Homo sapiens, UniProt P38646) for CN1c2ccc(NC(=O)Nc3ccc([N+](=O)[O-])cc3)cc2C(C)(C)C(O)C1(C)C (stereo not drawn) .
-8

Give the observed deltaG of "CN1c2ccc(NC(=O)Nc3ccc([N+](=O)[O-])cc3)cc2C(C)(C)C(=O)C1(C)C" for Stress-70 protein, mitochondrial (Homo sapiens, UniProt P38646).
-8.9

Enter recorded deltaG with Stress-70 protein, mitochondrial (Homo sapiens, UniProt P38646) for "CC1(C)CCNc2ccc(NC(=O)Nc3ccc([N+](=O)[O-])cc3)cc21" here.
-8.2

Fill in deltaG for "CC1(C)CC(C)(C)c2cc(NC(=S)Nc3ccc([N+](=O)[O-])cc3)ccc2S1" tested with Stress-70 protein, mitochondrial (Homo sapiens, UniProt P38646).
-8.5

Quote deltaG with test system Stress-70 protein, mitochondrial (Homo sapiens, UniProt P38646) for "CN1c2ccc(NC(=S)Nc3ccc(OC(F)(F)F)cc3)cc2C(C)(C)C(=O)C1(C)C"
-7.7

Report its deltaG with Stress-70 protein, mitochondrial (Homo sapiens, UniProt P38646) as the test system: "CC1(C)CC[N+](C)(C)c2ccc(NC(=O)Nc3ccc([N+](=O)[O-])cc3)cc21"
-8.5

Write deltaG of CN1c2ccc(NC(=S)Nc3ccc(OC(F)(F)F)cc3)cc2C(C)(C)C(O)C1(C)C (stereo not drawn) ; system used: Stress-70 protein, mitochondrial (Homo sapiens, UniProt P38646)
-7.6

Provide deltaG, system Stress-70 protein, mitochondrial (Homo sapiens, UniProt P38646), entry "CC1(C)CCNc2ccc(NC(=S)Nc3ccc(OC(F)(F)F)cc3)cc21"
-7.2

Fetch value of deltaG on Stress-70 protein, mitochondrial (Homo sapiens, UniProt P38646) for "CC1(C)CCNc2ccc(NC(=S)Nc3ccc([N+](=O)[O-])cc3)cc21" .
-7.9

Provide measured deltaG on Stress-70 protein, mitochondrial (Homo sapiens, UniProt P38646) for "CC1(C)CCNc2ccc(NC(=S)Nc3ccc(C(F)(F)F)cc3)cc21" please.
-7.5

# lookup: Stress-70 protein, mitochondrial (Homo sapiens, UniProt P38646) deltaG, key = "CN1c2ccc(NC(=S)Nc3ccc([N+](=O)[O-])cc3)cc2C(C)(C)CC1(C)C"
-8.7

Would you please give the reported deltaG of "CN1c2ccc(NC(=O)Nc3ccc(C(F)(F)F)cc3)cc2C(C)(C)C(=O)C1(C)C" with Stress-70 protein, mitochondrial (Homo sapiens, UniProt P38646)?
-8

Provide deltaG, recorded with Stress-70 protein, mitochondrial (Homo sapiens, UniProt P38646), of CN1c2ccc(NC(=O)Nc3ccc(OC(F)(F)F)cc3)cc2C(C)(C)C(O)C1(C)C (stereo not drawn)
-8.2

// fetch deltaG; item: CN1c2ccc(NC(=O)Nc3ccc(C(F)(F)F)cc3)cc2C(C)(C)C(O)C1(C)C (stereo not drawn) ; system: Stress-70 protein, mitochondrial (Homo sapiens, UniProt P38646)
-8.4

Fetch value of deltaG on Stress-70 protein, mitochondrial (Homo sapiens, UniProt P38646) for "CN1c2ccc(NC(=O)Nc3ccc(OC(F)(F)F)cc3)cc2C(C)(C)C(=O)C1(C)C" .
-7.9

Tell me its deltaG on Stress-70 protein, mitochondrial (Homo sapiens, UniProt P38646): "CN1c2ccc(NC(=S)Nc3ccc([N+](=O)[O-])cc3)cc2C(C)(C)C(=O)C1(C)C"
-8.2

* * *

Target: UniProt:P38646
Group membership follows Kd per the scheme range A = under 700 nM, range B = from 700 nM up to 2000 nM, range C = 2000 nM and over

Sort into band: CN1c2ccc(NC(=O)Nc3ccc([N+](=O)[O-])cc3)cc2C(C)(C)C(O)C1(C)C (centres undefined)
range B

Note: place this compound into its band. Item: "CN1c2ccc(NC(=O)Nc3ccc([N+](=O)[O-])cc3)cc2C(C)(C)C(=O)C1(C)C"
range A

For the record "CC1(C)CCNc2ccc(NC(=S)Nc3ccc(OC(F)(F)F)cc3)cc21" , report the class its Kd corresponds to.
range C

Which Kd category applies to CN1c2ccc(NC(=S)Nc3ccc(OC(F)(F)F)cc3)cc2C(C)(C)C(O)C1(C)C (centres undefined) here?
range C

Looking at CN1c2ccc(NC(=S)Nc3ccc(C(F)(F)F)cc3)cc2C(C)(C)C(O)C1(C)C (centres undefined) , which class would you pick?
range C

Which class does "CN1c2ccc(NC(=O)Nc3ccc(C(F)(F)F)cc3)cc2C(C)(C)C(=O)C1(C)C" fall in?
range B

Please report the category associated with "CN1c2ccc(NC(=S)Nc3ccc(OC(F)(F)F)cc3)cc2C(C)(C)C(=O)C1(C)C" , nothing else.
range C

Could you place CC1(C)CC(C)(C)c2cc(NC(=S)Nc3ccc([N+](=O)[O-])cc3)ccc2S1 [SHETA-2] in its proper category? Many thanks.
range A

* * *

Target: Stress-70 protein, mitochondrial (Homo sapiens, UniProt P38646)
# note: boundary value 1000 nM maps to class 0; Kd below it maps to class 1

# TODO verify Kd < 1000 nM strictly for this compound: "CN1c2ccc(NC(=O)Nc3ccc(N)cc3)cc2C(C)(C)C(=O)C1(C)C"
class 0

Please check: Kd for "CN1c2ccc(NC(=O)Nc3ccc(OC(F)(F)F)cc3)cc2C(C)(C)C(=O)C1(C)C" , strictly under 1000 nM or not?
class 0

State whether 1000 nM exceeds Kd recorded for "CN1c2ccc(NC(=S)Nc3ccc([N+](=O)[O-])cc3)cc2C(C)(C)CC1(C)C" .
class 1

For this compound, is Kd lower than 1000 nM? "CC1(C)CCNc2ccc(NC(=O)Nc3ccc([N+](=O)[O-])cc3)cc21"
class 0

Hi there! Is Kd for "CC1(C)CCNc2ccc(NC(=S)Nc3ccc([N+](=O)[O-])cc3)cc21" below 1000 nM, do you know?
class 0

Strictly below 1000 nM in Kd? CN1c2ccc(NC(=O)Nc3ccc(OC(F)(F)F)cc3)cc2C(C)(C)C(O)C1(C)C (centres undefined)
class 0

Regarding CN1c2ccc(NC(=O)Nc3ccc(C(F)(F)F)cc3)cc2C(C)(C)C(O)C1(C)C (centres undefined) , kindly confirm whether its Kd is beneath 1000 nM.
class 1

Dear reviewer, please state whether "CN1c2ccc(NC(=S)Nc3ccc([N+](=O)[O-])cc3)cc2C(C)(C)C(=O)C1(C)C" has Kd strictly beneath 1000 nM.
class 0

Does "CC1(C)CCNc2ccc(NC(=S)Nc3ccc(C(F)(F)F)cc3)cc21" have Kd strictly under 1000 nM?
class 0

* * *

System: A2780
Assay: Antiproliferative activity against human A2780 cells assessed as cell growth inhibition measured after 72 hrs by CellTiter 96 non-radioactive cell proliferation assay
Assay type: functional, cell-based
Conditions: A2780, 72 h
measurement-kind: IC50 (µM)
Record the value in µM, omitting the unit from your answer.

Tell me IC50 of "CC1(C)CCNc2ccc(NC(=S)Nc3ccc([N+](=O)[O-])cc3)cc21" when tested on A2780.
7.1

Provide A2780 IC50 reading for "CC1(C)CCNc2ccc(NC(=S)Nc3ccc(OC(F)(F)F)cc3)cc21" .
7.1

Param request: IC50 | system A2780 | item "CC1(C)CCNc2ccc(NC(=O)Nc3ccc([N+](=O)[O-])cc3)cc21"
6.9
